Reported pKi values are given for each entry in this list.
- Target System: thermolysin (TLN) (Bacillus thermoproteolyticus, UniProt P00800)
- Sequence (P00800 233-548): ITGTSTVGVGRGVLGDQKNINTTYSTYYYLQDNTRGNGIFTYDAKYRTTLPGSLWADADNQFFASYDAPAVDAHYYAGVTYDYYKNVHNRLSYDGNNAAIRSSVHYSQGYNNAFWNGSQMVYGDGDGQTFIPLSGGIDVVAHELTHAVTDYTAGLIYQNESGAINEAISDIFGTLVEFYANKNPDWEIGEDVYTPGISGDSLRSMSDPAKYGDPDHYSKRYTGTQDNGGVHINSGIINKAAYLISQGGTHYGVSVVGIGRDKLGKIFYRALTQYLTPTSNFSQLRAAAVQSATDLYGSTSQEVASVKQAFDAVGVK
To interpret pKi, take it as minus log10 of a concentration measured in moles per litre.

Compound: NCCc1ccc(NC(=O)CN(CCN(Cc2ccccn2)Cc2ccccn2)Cc2ccccn2)cc1
pKi: 5.15

// lookup pKi for O=C(NCc1ccc(CN(Cc2ccccn2)Cc2ccccn2)nc1)C1OC(O)C(O)C(O)C1O (stereo not drawn) 4.96

Okay, and O=C(NC[C@H](O)[C@@H](O)[C@H](O)[C@H](O)CO)c1ccc(CN(Cc2ccccn2)Cc2ccccn2)nc1 ? 4.92

Record: CCN(C[C@H](O)[C@@H](O)[C@H](O)[C@H](O)CO)C(=O)c1ccc(CN(Cc2ccccn2)Cc2ccccn2)nc1 5.05

Repeat for the following compound: c1ccc(CN(Cc2ccccn2)Cc2ccccn2)nc1 [TPA, tri(2-pyridinemethyl)amine, reference compound] 5.26

Then what about the compound O=C(O)c1ccc(CN(CCN(Cc2ccccn2)Cc2ccccn2)Cc2ccc(C(=O)O)cn2)nc1 ? 4.49

====

Each record here notes measured Ki.
- Target System: pseudolysin (PLN) (Pseudomonas aeruginosa, UniProt P14756)
- Sequence (P14756 198-498): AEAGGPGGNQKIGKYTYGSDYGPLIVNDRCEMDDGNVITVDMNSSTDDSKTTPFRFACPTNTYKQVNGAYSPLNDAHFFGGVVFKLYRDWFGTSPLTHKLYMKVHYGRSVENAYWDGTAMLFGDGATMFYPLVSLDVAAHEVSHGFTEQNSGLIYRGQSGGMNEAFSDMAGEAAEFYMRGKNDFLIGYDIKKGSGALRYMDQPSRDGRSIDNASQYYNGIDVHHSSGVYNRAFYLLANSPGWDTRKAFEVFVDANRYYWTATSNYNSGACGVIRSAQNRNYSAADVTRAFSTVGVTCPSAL
- Assay Details: Inhibition of pseudolysin (PLN), substrate McaRPPGFSAFK(Dnp)-OH
Entry rule: numbers only, all in µM.

Compound: c1ccc(CN(Cc2ccccn2)Cc2ccccn2)nc1 [TPA, tri(2-pyridinemethyl)amine, reference compound]
Ki / µM: 5

Compound: CCN(C[C@H](O)[C@@H](O)[C@H](O)[C@H](O)CO)C(=O)c1ccc(CN(Cc2ccccn2)Cc2ccccn2)nc1 [Zn225]
Ki / µM: 5

Compound: O=C(NCc1ccc(CN(Cc2ccccn2)Cc2ccccn2)nc1)C1OC(O)C(O)C(O)C1O (stereo not drawn) [Zn227]
Ki / µM: 9

Lookup: Ki / pseudolysin (PLN) (Pseudomonas aeruginosa, UniProt P14756) / O=C(NC[C@H](O)[C@@H](O)[C@H](O)[C@H](O)CO)c1ccc(CN(Cc2ccccn2)Cc2ccccn2)nc1 [Zn230] 1.1

Try COC(=O)c1ccc(CN(Cc2ccccn2)Cc2ccccn2)nc1 [Zn145] next. 12

Now this one: NCCc1ccc(NC(=O)CN(CCN(Cc2ccccn2)Cc2ccccn2)Cc2ccccn2)cc1 [Zn45] 2.8

====

- Target System: human MT1-MMP/MMP-14 (catalytic domain) (Homo sapiens, UniProt P50281)
- Construct: human MT1-MMP/MMP-14 (catalytic domain)
- Assay Details: Inhibition of MMP-14, fluorescence quenched peptide substrate McaPLGL(Dpa)AR-NH2
- Cond: substrate McaPLGL(Dpa)AR-NH2 4 µM; 30 min pre-incubation at room temperature; calculated from IC50; read-out: Ki ± s.d. MMP-14
- Method: McaPLGL(Dpa)AR-NH2 was used as a substrate for MMP-9 and MMP-14, while McaRPPGFSAFK(Dnp)-OH was used as substrate for ALN, PLN and TLN. The reaction velocities/initial rates (v) were determined at 37 °C, at an excitation wavelength of 320 nm and an emission wavelength of 405 nm with a slit width of 10 nm using either a Perkin Elmer LS 50 Luminescence spectrometer and the FL WinLab Software Package (Perkin Elmer) or a Clario Star microplate reader (CLARIOstar® BMG LABTECH). […]
Hi! Just check whether Ki is below 4 µM. Below gives fulfilled, equal or above gives not fulfilled.

For orientation, consider the following solved cases.
Molecule: CCN(C[C@H](O)[C@@H](O)[C@H](O)[C@H](O)CO)C(=O)c1ccc(CN(Cc2ccccn2)Cc2ccccn2)nc1
Target System: human MT1-MMP/MMP-14 (catalytic domain) (Homo sapiens, UniProt P50281)
Label Class: not fulfilled
//
Molecule: O=C(O)c1ccc(CN(CCN(Cc2ccccn2)Cc2ccccn2)Cc2ccc(C(=O)O)cn2)nc1
Target System: human MT1-MMP/MMP-14 (catalytic domain) (Homo sapiens, UniProt P50281)
Label Class: not fulfilled
//
Molecule: CN(C[C@H](O)[C@@H](O)[C@H](O)[C@H](O)CO)C(=O)c1ccc(CN(Cc2ccccn2)Cc2ccccn2)nc1
Target System: human MT1-MMP/MMP-14 (catalytic domain) (Homo sapiens, UniProt P50281)
Label Class: not fulfilled
//
Molecule: O=C(O)c1ccc(CN(Cc2ccccn2)Cc2ccccn2)nc1
Target System: human MT1-MMP/MMP-14 (catalytic domain) (Homo sapiens, UniProt P50281)
Label Class: fulfilled
//
Molecule: NCCc1ccc(NC(=O)CN(CCN(Cc2ccccn2)Cc2ccccn2)Cc2ccccn2)cc1
Target System: human MT1-MMP/MMP-14 (catalytic domain) (Homo sapiens, UniProt P50281)
Label Class: fulfilled

Report whether reported Ki is lower than 4 µM (strictly) for c1ccc(CN(Cc2ccccn2)Cc2ccccn2)nc1 [TPA, tri(2-pyridinemethyl)amine, reference compound] fulfilled

Would you mind doing O=C(NCc1ccc(CN(Cc2ccccn2)Cc2ccccn2)nc1)C1OC(O)C(O)C(O)C1O (stereo not shown) as well? not fulfilled

Try this molecule next: O=C(NC[C@H](O)[C@@H](O)[C@H](O)[C@H](O)CO)c1ccc(CN(Cc2ccccn2)Cc2ccccn2)nc1 fulfilled

Can you check CC(=O)OC[C@@H](OC(C)=O)[C@@H](OC(C)=O)[C@H](OC(C)=O)[C@H](CN(C)C(=O)c1ccc(CN(Cc2ccccn2)Cc2ccccn2)nc1)OC(C)=O next? not fulfilled

Now consider COC(=O)c1ccc(CN(Cc2ccccn2)Cc2ccccn2)nc1 . fulfilled

Another molecule: CC(N)C(=O)NC(C)C(=O)N1CCN(C(=O)c2ccc(CN(Cc3ccccn3)Cc3ccccn3)nc2)CC1 (stereo not shown) not fulfilled

Consider next the molecule CC(N)C(=O)NC(C)C(=O)NCCc1ccc(NC(=O)c2ccc(CN(Cc3ccccn3)Cc3ccccn3)nc2)cc1 (stereo not shown) in the same way. fulfilled
